Source: patent US4855497A

Tested on: Blood Sugar Level
Assay: Effect on blood sugar level
Assay type: in vivo, SD/Slc male rats
Conditions: 50 mg/kg perorally; 0 hr; starved overnight
Some molecules, each annotated with its measured Blood sugar level, 0 hr (mean ± S.E.).
Respond numerically; units are mg/dL and should not be typed.

Use the examples below as a reference point.
MOLECULE	UNITS_OF_MEASURE	Blood sugar level, 0 hr (mean ± S.E.)
Cc1cccc(C)c1NC(=O)CCNCCN(C(C)C)C(C)C [Compound No. 1]	mg/dL	68.4
CC(C)N(CCC(C(N)=O)(c1ccccc1)c1ccccn1)C(C)C (centres unmarked) [Disopyramide, reference compound]	mg/dL	75.2
Cc1cccc(C)c1NC(=O)CCNCCNC(C)C [Compound No. 4]	mg/dL	81.2
Cc1cccc(C)c1NC(=O)CCNCCCN(C(C)C)C(C)C [compound 11]	mg/dL	71.3

For the molecule Cc1cccc(C)c1NC(=O)CCNCCCN(C)C [Compound No. 2] , the measured Blood sugar level, 0 hr (mean ± S.E.) on Blood Sugar Level was 77.6

* * *

System: Blood Sugar Level
Test: Effect on blood sugar level
Format: in vivo, SD/Slc male rats
Conditions: 200 mg/kg perorally; 2 hr; starved overnight
Description: Effect on Blood Sugar Level After starving SD/Slc male rats (body weight, 250 g; 6 animals per group) overnight, 20-μl blood samples were drawn from the tail vein of each rat while it was not anesthetized. Records were taken of the sugar level in each blood sample. […] At 2, 4 and 6 hours of the administration, blood samples were taken and their blood sugar levels were measured. […]
Label class 1 for high-side Blood sugar level, 2 hr (mean ± S.E.) (at or above 50 mg/dL) and class 0 for low-side Blood sugar level, 2 hr (mean ± S.E.) (below it).

MOLECULE	TESTED_TARGET	QUALITATIVE_LABEL
Cc1cccc(C)c1NC(=O)CCNCCNC(C)C	Blood Sugar Level	class 1
Cc1cccc(C)c1NC(=O)CCNCCCN(C(C)C)C(C)C	Blood Sugar Level	class 1
CC(C)N(CCC(C(N)=O)(c1ccccc1)c1ccccn1)C(C)C (centres unmarked) [Disopyramide, reference compound]	Blood Sugar Level	class 0
Cc1cccc(C)c1NC(=O)CCNCCN(C(C)C)C(C)C	Blood Sugar Level	class 1

Turning now to a further molecule:
**Q:** Has Cc1cccc(C)c1NC(=O)CCNCCCN(C)C a recorded Blood sugar level, 2 hr (mean ± S.E.) greater than or equal to 50 mg/dL?
**A:** class 1

* * *

Test system: Aconitine-Induced Arrythmia
Assay: Activity against aconitine-induced arrythmia in rats
Assay type: in vivo, Sprague-Dowley male rats
Conditions: aconitine 1 μg/kg/min; 5 mg/kg intravenously; untreated 14.3 min
OBSERVABLE: Time required for ventricular extrasystole to occur (min)
Please respond with the number in min and leave the unit unwritten.

Reported Time required for ventricular extrasystole to occur ( Cc1cccc(C)c1NC(=O)CCNCCCN(CC(C)C)CC(C)C [compound 12] ) = 26.2

Noted for CCc1cccc(CC)c1NC(=O)CCNCCCN(CC(C)C)CC(C)C [compound 31] : its Time required for ventricular extrasystole to occur reads 26.1

Noted for Cc1cccc(C)c1NC(=O)CCNCCCN(C(C)C)C(C)C [compound 11] : its Time required for ventricular extrasystole to occur reads 26.2

* * *

Tested on: Blood Sugar Level
Assay: Effect on blood sugar level
Assay type: in vivo, SD/Slc male rats
Conditions: 50 mg/kg perorally; 4 hr; starved overnight
I'd appreciate it if you marked entries Yes when Blood sugar level, 4 hr (mean ± S.E.) is lower than 60 mg/dL and No when it is not.

Recorded results for 4 molecules are shown here.
MOLECULE	TESTED_TARGET	QUALITATIVE_LABEL
Cc1cccc(C)c1NC(=O)CCNCCNC(C)C	Blood Sugar Level	Yes
Cc1cccc(C)c1NC(=O)CCNCCN(C(C)C)C(C)C	Blood Sugar Level	Yes
Cc1cccc(C)c1NC(=O)CCNCCCN(C(C)C)C(C)C	Blood Sugar Level	No
Cc1cccc(C)c1NC(=O)CCNCCCN(C)C	Blood Sugar Level	No

**Q:** Criterion: Blood sugar level, 4 hr (mean ± S.E.) strictly below 60 mg/dL. Is it met by CC(C)N(CCC(C(N)=O)(c1ccccc1)c1ccccn1)C(C)C (centres unmarked) [Disopyramide, reference compound] ?
**A:** Yes
